Let's look at some compounds and their measured AC50.
Measured Target: UniProtKB P18089
Sequence (P18089 whole entry): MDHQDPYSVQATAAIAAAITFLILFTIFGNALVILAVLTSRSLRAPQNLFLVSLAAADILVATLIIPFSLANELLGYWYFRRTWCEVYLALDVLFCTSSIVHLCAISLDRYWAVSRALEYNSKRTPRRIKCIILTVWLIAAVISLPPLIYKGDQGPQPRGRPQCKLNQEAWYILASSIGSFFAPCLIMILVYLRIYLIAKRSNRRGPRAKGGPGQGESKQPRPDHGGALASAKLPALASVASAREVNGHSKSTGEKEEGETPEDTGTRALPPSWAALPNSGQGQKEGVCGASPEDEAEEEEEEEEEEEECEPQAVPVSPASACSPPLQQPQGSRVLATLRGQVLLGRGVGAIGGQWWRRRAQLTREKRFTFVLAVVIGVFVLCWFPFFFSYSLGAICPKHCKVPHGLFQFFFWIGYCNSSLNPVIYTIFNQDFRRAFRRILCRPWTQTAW
Readout: AC50

compound=COc1ccc(-c2ccc3cc(C(=O)O)ccc3c2)cc1C12CC3CC(CC(C3)C1)C2 measured_target="UniProtKB P18089" measured="> 30 µM"
compound="COC(=O)C1=C(C)NC(C)=C(C(=O)OC2CCCN(Cc3ccccc3)C2)C1c1cccc([N+](=O)[O-])c1 (centres undefined)" measured_target="UniProtKB P18089" measured="> 30 µM"
compound=CN(C)CCc1c[nH]c2ccc(C[C@H]3COC(=O)N3)cc12 measured_target="UniProtKB P18089" measured="> 30 µM"
compound=CC(C)(C)c1cc(C(C)(C)C)c(NC(=O)c2c[nH]c3ccccc3c2=O)cc1O measured_target="UniProtKB P18089" measured="> 10 µM"
compound=O=C(O)CCCCCCCC(=O)O measured_target="UniProtKB P18089" measured="> 10 µM"
compound=CCCCN1C[C@H](O)[C@@H](O)[C@H](O)[C@H]1CO measured_target="UniProtKB P18089" measured="> 30 µM"
compound=CC(C)(C)C(=O)Oc1ccc(S(=O)(=O)Nc2ccccc2C(=O)NCC(=O)O)cc1 measured_target="UniProtKB P18089" measured="> 30 µM"
compound=Cc1cc(C)c(NC(=O)CN(CC(=O)O)CC(=O)O)c(C)c1Br measured_target="UniProtKB P18089" measured="> 30 µM"
compound=Clc1ccc(CCCOCCCN2CCCCC2)cc1 measured_target="UniProtKB P18089" measured="> 30 µM"

* * *

// AC50 collected for Vasopressin V1a receptor (Homo sapiens)
Readout: AC50

compound=CC(C)OC(=O)CCC/C=C\C[C@@H]1[C@@H](CC[C@@H](O)CCc2ccccc2)[C@H](O)C[C@@H]1O readout=AC50 measured="> 30 µM"
compound=CN1C(C(=O)Nc2ccccn2)=C(O)c2sc(Cl)cc2S1(=O)=O readout=AC50 measured="> 30 µM"
compound="COC(=O)C1=C(C)NC(C)=C(C(=O)OC2CCCN(Cc3ccccc3)C2)C1c1cccc([N+](=O)[O-])c1 (stereo not given)" readout=AC50 measured="> 30 µM"
compound="CN1C(=O)C(O)N=C(c2ccccc2)c2cc(Cl)ccc21 (stereo not given)" readout=AC50 measured="> 10 µM"
compound=CO/N=C(\C(=O)N[C@@H]1C(=O)N2C(C(=O)O)=C(CSc3nnnn3C)CS[C@H]12)c1csc(N)n1 readout=AC50 measured="> 30 µM"
compound=C=CCC1(CC(C)C)C(=O)NC(=O)NC1=O readout=AC50 measured="> 10 µM"
compound=Nc1nc(NC2CC2)c2ncn([C@H]3C=C[C@@H](CO)C3)c2n1 readout=AC50 measured="> 30 µM"
compound=CN1CCC(=C2c3ccccc3CCc3sccc32)CC1 readout=AC50 measured="> 30 µM"
compound=CCc1c(Cl)c(O)c(Cl)c(O)c1C(=O)O[C@H]1[C@H](O)[C@H](OC)[C@H](OC/C2=C\C=C\C[C@H](O)/C(C)=C/[C@H](CC)[C@@H](O[C@@H]3OC(C)(C)[C@@H](OC(=O)C(C)C)[C@H](O)[C@@H]3O)/C(C)=C/C(C)=C/C[C@@H]([C@@H](C)O)OC2=O)O[C@@H]1C readout=AC50 measured="> 10 µM"
compound="CC(CC(c1ccccc1)c1ccccc1)NC(C)(C)C (stereo not given)" readout=AC50 measured="> 30 µM"
compound="COc1ccc(CCN(C)CCCC(C#N)(c2cc(OC)c(OC)c(OC)c2)C(C)C)cc1OC (stereo not given)" readout=AC50 measured="> 30 µM"
compound="COc1ccc(CCNCC(O)COc2cccc(C)c2)cc1OC (stereo not given)" readout=AC50 measured="> 10 µM"
compound="CN(C)CC/C=C1\\c2ccccc2CSc2ccccc21 [DOTHIEPIN]" readout=AC50 measured="> 30 µM"
compound=Cc1cn([C@H]2C[C@H](N=[N+]=[N-])[C@@H](CO)O2)c(=O)[nH]c1=O readout=AC50 measured="> 10 µM"
compound="CC(C[N+](C)(C)C)OC(N)=O (stereo not given)" readout=AC50 measured="> 10 µM"
compound=CC[C@H]1CN2CCc3cc(OC)c(OC)cc3[C@@H]2C[C@@H]1C[C@H]1NCCc2cc(OC)c(OC)cc21 readout=AC50 measured="> 30 µM"
compound="COc1ccc(C(=O)Nc2ccccc2CCC2CCCCN2C)cc1 (stereo not given) [ENCAINIDE]" readout=AC50 measured="> 10 µM"
compound=C#C[C@]1(O)CC[C@H]2[C@@H]3CCc4cc(OC5CCCC5)ccc4[C@H]3CC[C@@]21C readout=AC50 measured="> 10 µM"
compound=NCC(=O)CCC(=O)O readout=AC50 measured="> 30 µM"
compound=O=C(O)CCCCCCNC1c2ccccc2CCc2ccccc21 readout=AC50 measured="> 30 µM"
compound=Nc1ccn([C@H]2CC[C@@H](CO)O2)c(=O)n1 readout=AC50 measured="> 10 µM"
compound=CO[C@@H]1[C@@H](O[C@@H]2O[C@H](C)[C@@H](O[C@H]3C[C@@](C)(O)[C@@H](OC(=O)CC(C)C)[C@H](C)O3)[C@H](N(C)C)[C@H]2O)[C@@H](CC=O)C[C@@H](C)[C@@H](O)/C=C/C=C/C[C@@H](C)OC(=O)C[C@H]1OC(C)=O readout=AC50 measured="> 10 µM"
compound=CCN1CCN(C(=O)N[C@@H](C(=O)N[C@@H]2C(=O)N3C(C(=O)O)=C(CSc4nnnn4C)CS[C@H]23)c2ccc(O)cc2)C(=O)C1=O readout=AC50 measured="> 30 µM"
compound="COc1cccc(C2(O)CCCCC2CN(C)C)c1 (stereo not given)" readout=AC50 measured="> 10 µM"
compound=N#Cc1ccc([C@H]2CCc3cncn32)c(F)c1 readout=AC50 measured="> 10 µM"
compound=Cc1cccc(Nc2ccccc2C(=O)O)c1C readout=AC50 measured="> 10 µM"
compound=C[C@H](CSC(=O)c1ccccc1)C(=O)N1C[C@@H](Sc2ccccc2)C[C@H]1C(=O)O readout=AC50 measured="> 10 µM"
compound=CCCCc1ncc(/C=C(\Cc2cccs2)C(=O)O)n1Cc1ccc(C(=O)O)cc1 readout=AC50 measured="> 30 µM"
compound=N[C@@H]1[C@H]2CN(c3nc4c(cc3F)c(=O)c(C(=O)O)cn4-c3ccc(F)cc3F)C[C@@H]12 readout=AC50 measured="> 30 µM"
compound="NC(=O)CN1CC(O)CC1=O (stereo not given)" readout=AC50 measured="> 30 µM"

* * *

Measured Target: 5-hydroxytryptamine receptor 2B (Homo sapiens); note: assay procedure not described here
Sequence (P41595 whole entry): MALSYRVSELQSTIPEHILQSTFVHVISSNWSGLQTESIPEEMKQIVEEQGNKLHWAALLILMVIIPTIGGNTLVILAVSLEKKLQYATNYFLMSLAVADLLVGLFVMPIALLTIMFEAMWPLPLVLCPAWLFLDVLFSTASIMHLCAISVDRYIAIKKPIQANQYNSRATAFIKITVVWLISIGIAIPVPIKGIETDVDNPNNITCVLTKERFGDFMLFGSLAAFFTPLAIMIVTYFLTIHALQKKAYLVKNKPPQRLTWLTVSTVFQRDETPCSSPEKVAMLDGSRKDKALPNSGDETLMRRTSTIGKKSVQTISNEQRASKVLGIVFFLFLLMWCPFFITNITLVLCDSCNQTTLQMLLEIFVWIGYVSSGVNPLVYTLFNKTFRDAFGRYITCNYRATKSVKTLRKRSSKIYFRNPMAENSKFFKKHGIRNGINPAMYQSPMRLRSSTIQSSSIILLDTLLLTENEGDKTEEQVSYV
Assay type: functional, cell-based
The reader will find reported AC50 values listed item by item below.
Readout: AC50

molecule="CN(C)CC/C=C1\\c2ccccc2CSc2ccccc21 [DOTHIEPIN]" readout=AC50 measured="3.6 µM"
molecule=COc1ccc(-c2ccc3cc(C(=O)O)ccc3c2)cc1C12CC3CC(CC(C3)C1)C2 readout=AC50 measured="> 30 µM"
molecule=Clc1ccccc1C(c1ccccc1)(c1ccccc1)n1ccnc1 readout=AC50 measured="> 10 µM"
molecule=C#C[C@]1(O)CC[C@H]2[C@@H]3CCc4cc(OC5CCCC5)ccc4[C@H]3CC[C@@]21C readout=AC50 measured="> 10 µM"
molecule=N[C@@H]1[C@H]2CN(c3nc4c(cc3F)c(=O)c(C(=O)O)cn4-c3ccc(F)cc3F)C[C@@H]12 readout=AC50 measured="> 30 µM"
molecule="NC(=O)CN1CC(O)CC1=O (centres undefined)" readout=AC50 measured="> 30 µM"
molecule="O=C(NCCN1CCOCC1)c1ccc(Cl)cc1 [MOCLOBEMIDE]" readout=AC50 measured="> 10 µM"
molecule="COc1ccccc1OCCNCC(O)c1ccc(C)c(S(N)(=O)=O)c1 (centres undefined)" readout=AC50 measured="1.6 µM"
molecule=CN1[C@@H]2CC[C@H]1C[C@@H](OC(c1ccccc1)c1ccccc1)C2 readout=AC50 measured="2.6 µM"

* * *

Measured Target: Thromboxane A2 receptor (Homo sapiens, UniProt P21731); note: assay procedure not described here
Sequence (P21731 whole entry): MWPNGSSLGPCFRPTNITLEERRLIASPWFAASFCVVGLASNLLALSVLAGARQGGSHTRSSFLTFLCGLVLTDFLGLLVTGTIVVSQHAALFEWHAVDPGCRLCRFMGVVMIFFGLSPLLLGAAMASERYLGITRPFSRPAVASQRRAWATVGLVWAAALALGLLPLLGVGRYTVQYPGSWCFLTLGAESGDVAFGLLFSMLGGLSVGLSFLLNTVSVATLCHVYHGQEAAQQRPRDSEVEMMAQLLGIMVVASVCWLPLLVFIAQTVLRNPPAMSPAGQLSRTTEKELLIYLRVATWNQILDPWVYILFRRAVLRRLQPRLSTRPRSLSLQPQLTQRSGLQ
Type: functional, cell-based
Readout: AC50

compound="CC(C)(C)C(=O)OCOC(=O)[C@@H]1N2C(=O)[C@@H](NC(=O)[C@H](N)c3ccccc3)[C@H]2SC1(C)C [PIVAMPICILLIN]" readout=AC50 measured="> 30 µM"
compound="CCN(CC)CCOC(=O)C(c1ccccc1)C1CCCCC1 (centres undefined) [DROFENINE]" readout=AC50 measured="> 30 µM"
compound="CC(C)(C)NC[C@H](O)COc1ccccc1C1CCCC1 [PENBUTOLOL]" readout=AC50 measured="16.1 µM"
compound="CCC1=C(C)CN(C(=O)NCCc2ccc(S(=O)(=O)NC(=O)N[C@H]3CC[C@H](C)CC3)cc2)C1=O [GLIMEPIRIDE]" readout=AC50 measured="18.5 µM"
compound="CC(C)(C)NCC(O)COc1cccc2c1SCCC2 (centres undefined) [TERTATOLOL]" readout=AC50 measured="> 30 µM"
compound="Cc1ccccc1OCC(O)CO (centres undefined) [MEPHENESIN]" readout=AC50 measured="> 30 µM"
compound="Cc1cc(C#N)cc(C)c1Oc1nc(Nc2ccc(C#N)cc2)nc(N)c1Br [ETRAVIRINE]" readout=AC50 measured="> 3 µM"
compound=N=C1CCCN1Cc1[nH]c(=O)[nH]c(=O)c1Cl readout=AC50 measured="> 30 µM"
compound="Clc1cc(Cl)c(OCC#CI)cc1Cl [HALOPROGIN]" readout=AC50 measured="> 30 µM"

Cited source for all entries: ChEMBL document CHEMBL5291721
